meta.source: patent US6689806B1

- targetOrTestSystem: PDGFR (Homo sapiens, UniProt P09619)
- Sequence (P09619 33-1106): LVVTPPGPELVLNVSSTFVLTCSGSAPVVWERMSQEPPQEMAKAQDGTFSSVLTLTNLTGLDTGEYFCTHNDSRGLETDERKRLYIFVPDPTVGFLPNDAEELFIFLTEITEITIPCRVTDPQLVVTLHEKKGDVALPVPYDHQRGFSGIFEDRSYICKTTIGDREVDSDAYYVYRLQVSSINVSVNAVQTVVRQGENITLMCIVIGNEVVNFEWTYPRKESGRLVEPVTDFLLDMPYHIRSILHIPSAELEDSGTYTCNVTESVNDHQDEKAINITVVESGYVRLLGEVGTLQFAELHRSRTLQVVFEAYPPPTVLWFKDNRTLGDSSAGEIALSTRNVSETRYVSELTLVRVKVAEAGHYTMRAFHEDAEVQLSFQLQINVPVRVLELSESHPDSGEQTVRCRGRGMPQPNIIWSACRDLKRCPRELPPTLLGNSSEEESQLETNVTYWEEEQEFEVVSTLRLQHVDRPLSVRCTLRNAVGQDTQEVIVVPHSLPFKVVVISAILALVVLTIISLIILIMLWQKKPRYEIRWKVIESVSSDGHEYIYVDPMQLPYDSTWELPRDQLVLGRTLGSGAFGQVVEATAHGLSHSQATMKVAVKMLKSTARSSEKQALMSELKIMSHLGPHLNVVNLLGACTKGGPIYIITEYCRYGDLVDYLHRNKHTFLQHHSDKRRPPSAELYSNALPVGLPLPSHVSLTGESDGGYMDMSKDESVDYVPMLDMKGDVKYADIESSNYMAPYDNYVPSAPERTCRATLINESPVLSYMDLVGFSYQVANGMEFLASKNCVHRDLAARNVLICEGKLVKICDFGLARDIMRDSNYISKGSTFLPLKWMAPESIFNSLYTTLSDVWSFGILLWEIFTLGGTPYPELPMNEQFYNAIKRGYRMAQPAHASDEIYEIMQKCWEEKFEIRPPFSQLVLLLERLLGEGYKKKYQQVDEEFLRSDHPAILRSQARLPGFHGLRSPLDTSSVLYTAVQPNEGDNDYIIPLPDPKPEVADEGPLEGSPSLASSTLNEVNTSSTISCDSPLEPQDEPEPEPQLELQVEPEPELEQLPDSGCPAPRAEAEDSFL
- assaySummary: PDGF-induced BrdU incorporation assay
- Type: cell-based
- Design: expressed in transfected cells; host or cells: 3T3
- conditionLabel: Table 5; 3T3 cells expressing human PDGF-R, PDGF 3.8 nM; read-out: BrdU DNA syn. PDFGr IC50
pIC50: −log10 of the molar value.
Recorded pIC50 values for a group of molecules are listed next.

# molecule, valueComparator, pIC50
data = [
    ("COc1cccc(-c2ccc3c(c2)NC(=O)C3Cc2[nH]c(C)c(CCCN(C)C)c2C)c1 (centres unmarked)", "=", 5.92),
    ("COc1ccc(CC2C(=O)Nc3ccc(CCN4CCOCC4)cc32)cc1-c1ccsc1 (centres unmarked)", "<", 4.30),
    ("COc1ccc(CC2C(=O)Nc3ccc(F)cc32)cc1C1CCCC1 (centres unmarked)", "=", 4.49),
    ("COc1ccc(-c2ccc3c(c2)NC(=O)C3Cc2[nH]c(C)c(CCCN(C)C)c2C)cc1 (centres unmarked)", "=", 5.94),
    ("O=C1Nc2cc(-c3ccccc3)ccc2C1Cc1cccc(F)c1O (centres unmarked)", "<", 4.30),
]
